// provenance: patent US10053443B2

Test system: Raw 264.7 (ATCC TIB71) cells
Experiment: Evaluation of cell survival rate of macrophages (MTT)
Type: cell-based, mouse
Details: Raw 264.7, 10 μM, 24 hours
assay_endpoint: Grades of cell survival rate (%, in 10 μM)

Some entries whose results are on file:
# mol, measured_on, test_result
measured = [
    ("COc1ccc(-c2cc3cc(CCCO)cc(OC)c3o2)cc1OC", "Raw 264.7 (ATCC TIB71) cells", "A (A: 90<A≤100)"),
    ("COc1cc(-c2cc3cc(CCCO)cc(OC)c3o2)ccc1O", "Raw 264.7 (ATCC TIB71) cells", "A (A: 90<A≤100)"),
    ("COc1cc(-c2cc3cc(CCCO)cc(OC)c3o2)cc(OC)c1O", "Raw 264.7 (ATCC TIB71) cells", "A (A: 90<A≤100)"),
    ("COc1cc(CCCO)cc2cc(-c3cc(F)cc(F)c3)oc12", "Raw 264.7 (ATCC TIB71) cells", "A (A: 90<A≤100)"),
    ("COc1cc(CCCO)cc2cc(-c3ccc(N(C)C)cc3)oc12", "Raw 264.7 (ATCC TIB71) cells", "A (A: 90<A≤100)"),
]

Entry `COc1cc(CCCO)cc2cc(-c3ccc(C)cc3)oc12` : reported Grades of cell survival rate (%, in 10 μM) = ?
A (A: 90<A≤100)

Entry `COc1cccc(-c2cc3cc(CCCO)cc(OC)c3o2)c1` : reported Grades of cell survival rate (%, in 10 μM) = ?
A (A: 90<A≤100)

Entry `COc1ccc(-c2cc3cc(CCCO)cc(O)c3o2)cc1OC` : reported Grades of cell survival rate (%, in 10 μM) = ?
B (B: 80<B≤90)

Entry `COc1ccc(-c2cc3cc(CCCO)cc(OC)c3o2)cc1` : reported Grades of cell survival rate (%, in 10 μM) = ?
A (A: 90<A≤100)

Entry `COc1cc(CCCO)cc(CCc2cccc(C)c2)c1O` : reported Grades of cell survival rate (%, in 10 μM) = ?
A (A: 90<A≤100)

Entry `COc1ccc(-c2cc3cc(CCCOC(C)=O)cc(OC)c3o2)cc1OC` : reported Grades of cell survival rate (%, in 10 μM) = ?
A (A: 90<A≤100)

Entry `COc1cc(CCCO)cc2cc(-c3cc(O)cc(O)c3)oc12` : reported Grades of cell survival rate (%, in 10 μM) = ?
A (A: 90<A≤100)

Entry `COc1ccc(-c2cc3cc(CCO)cc(OC)c3o2)cc1OC` : reported Grades of cell survival rate (%, in 10 μM) = ?
B (B: 80<B≤90)

Entry `COc1cc(CCCO)cc2cc(-c3ccc(O)c(O)c3)oc12` : reported Grades of cell survival rate (%, in 10 μM) = ?
A (A: 90<A≤100)

Entry `COc1ccc(-c2cc3cc(CCCO)cc(OC)c3o2)c(C)c1` : reported Grades of cell survival rate (%, in 10 μM) = ?
A (A: 90<A≤100)

Entry `COc1ccc(-c2cc3cc(CCCO)cc(OC)c3o2)cc1O` : reported Grades of cell survival rate (%, in 10 μM) = ?
B (B: 80<B≤90)

----------
Hi there, I'd appreciate the recorded IC50 for every entry that follows.
System: interleukin-6 (IL-6) generation
Experiment: Inhibition of interleukin-6 (IL-6) generation in LPS-treated Raw 264.7 cells (ELISA)
Format: cell-based, mouse
Settings: Mus musculus, RAW264.7; Raw 264.7, LPS treated; read-out: Grades of IC50 on IL-6 generation

Entry `COc1cc(CCCO)cc2cc(-c3cc(O)cc(O)c3)oc12` : reported IC50 = ?
10 to 20 µM

Entry `COc1cc(-c2cc3cc(CCCO)cc(OC)c3o2)ccc1O` : reported IC50 = ?
≤ 10 µM

Entry `COc1ccc(-c2cc3cc(CCCO)cc(OC)c3o2)cc1` : reported IC50 = ?
40 to 50 µM

Entry `COc1cc(CCCO)cc2cc(-c3ccc(N(C)C)cc3)oc12` : reported IC50 = ?
40 to 50 µM

Entry `COc1ccc(-c2cc3cc(CCO)cc(OC)c3o2)cc1OC` : reported IC50 = ?
20 to 30 µM

Entry `COc1cc(-c2cc3cc(CCCO)cc(OC)c3o2)cc(OC)c1O` : reported IC50 = ?
≤ 10 µM

Entry `COc1cc(CCCO)cc2cc(-c3cccc(F)c3)oc12` : reported IC50 = ?
40 to 50 µM

Entry `COc1cc(CCCO)cc2cc(-c3ccc(C)cc3)oc12` : reported IC50 = ?
≤ 10 µM

Entry `COc1cc(CCCO)cc2cc(-c3cccc(C)c3)oc12` : reported IC50 = ?
40 to 50 µM

Entry `COc1cc(CCCO)cc2cc(-c3ccc(O)c(O)c3)oc12` : reported IC50 = ?
≤ 10 µM

Entry `COc1ccc(-c2cc3cc(CCCO)cc(OC)c3o2)cc1O` : reported IC50 = ?
40 to 50 µM

Entry `COc1ccc(-c2cc3cc(CCCO)cc(OC)c3o2)cc1OC` : reported IC50 = ?
10 to 20 µM

Entry `COc1ccc(-c2cc3cc(CO)cc(OC)c3o2)cc1OC` : reported IC50 = ?
40 to 50 µM

Entry `COc1ccc(-c2cc3cc(CCCOC(C)=O)cc(OC)c3o2)cc1OC` : reported IC50 = ?
20 to 30 µM

Entry `COc1ccc(-c2cc3cc(CCCO)cc(O)c3o2)cc1OC` : reported IC50 = ?
20 to 30 µM

Entry `COc1cc(CCCO)cc2cc(-c3cc(F)cc(F)c3)oc12` : reported IC50 = ?
10 to 20 µM

Entry `COc1ccc(-c2cc3cc(CCCO)cc(OC)c3o2)c(C)c1` : reported IC50 = ?
≤ 10 µM

Entry `COc1cccc(-c2cc3cc(CCCO)cc(OC)c3o2)c1` : reported IC50 = ?
40 to 50 µM

----------
Tested on: Tumor Necrosis Factor Alpha (TNF-alpha)
Experiment: Inhibition of TNF-alpha generation in LPS-treated Raw 264.7 cells (ELISA)
Type: cell-based
Conditions: Mus musculus, RAW264.7; Raw 264.7, LPS treated; read-out: Grades of IC50 on TNF-alpha generation
Hi there, I'd appreciate the recorded IC50 for every entry that follows.

Entry `COc1ccc(-c2cc3cc(CCCOC(C)=O)cc(OC)c3o2)cc1OC` : reported IC50 = ?
1 to 3 µM

Entry `COc1cc(CCCO)cc2cc(-c3cc(O)cc(O)c3)oc12` : reported IC50 = ?
5 to 10 µM

Entry `COc1ccc(-c2cc3cc(CCCO)cc(OC)c3o2)c(C)c1` : reported IC50 = ?
3 to 5 µM

Entry `COc1cc(-c2cc3cc(CCCO)cc(OC)c3o2)cc(OC)c1O` : reported IC50 = ?
1 to 3 µM

Entry `COc1cc(CCCO)cc2cc(-c3cc(F)cc(F)c3)oc12` : reported IC50 = ?
15 to 17 µM

----------
System: Nitrogen Oxide (NO) generation
Assay: Inhibition of nitrogen oxide (NO) generation in LPS-treated Raw 264.7 cells (Griess)
Assay type: cell-based, mouse
Settings: Raw 264.7, LPS 500 ng/ml, 24 hours
assay_endpoint: Grades of NO generation inhibition rate (%)

# compound, measured_on, test_result
measured = [
    ("COc1ccc(-c2cc3cc(CCCOC(C)=O)cc(OC)c3o2)cc1OC [Example 28]", "Nitrogen Oxide (NO) generation", "B (B: 25<B≤35)"),
    ("COc1cccc(-c2cc3cc(CCCO)cc(OC)c3o2)c1 [Example 5]", "Nitrogen Oxide (NO) generation", "C (C: 15<C≤25)"),
    ("COc1ccc(-c2cc3cc(CO)cc(OC)c3o2)cc1OC [Example 18]", "Nitrogen Oxide (NO) generation", "C (C: 15<C≤25)"),
    ("COc1cc(CCCO)cc2cc(-c3ccc(C)cc3)oc12 [Example 4]", "Nitrogen Oxide (NO) generation", "B (B: 25<B≤35)"),
]
